Just for reference, ChEMBL document CHEMBL3228043 is where these values come from.

Measured log10 of EC50 by item
test system: HeLa; experiment: Cytostatic activity against human HeLa cells after 72 hrs by FCR-based colorimetric method; type: functional; conditions: read-out: ED50 (the source's name)
Observed Property: log10 of EC50 (log10 of the value in µg/mL)

Compound	log10 of EC50
CC(=O)O[C@@H]1[C@H](OC(C)=O)[C@H](OC(C)=O)CO[C@H]1n1nc(CBr)cc1C(N)=O	0.48
CCOC(=O)c1cc(CBr)nn1[C@@H]1O[C@H](COC(C)=O)[C@@H](OC(C)=O)[C@H](OC(C)=O)[C@H]1OC(C)=O	0.70
Sc1ncnc2nc[nH]c12 [MERCAPTOPURINE ANHYDROUS]	-1.00
CC(=O)O[C@@H]1[C@H](OC(C)=O)[C@H](OC(C)=O)CO[C@H]1n1nc(CN(CCCl)CCCl)cc1C(N)=O	1.70
CC(=O)OC[C@H]1O[C@@H](n2nc(CN(CCCl)CCCl)cc2C(N)=O)[C@H](OC(C)=O)[C@@H]1OC(C)=O	1.54
